Known GI50 of a selection of compounds
Tested on: SK-MEL-5 melanoma
measurement_description: NCI tumour cell line growth inhibition, 48 h
measurement_name: GI50

>  <compound>
COc1cccc(OC(=O)c2ccc(C(F)(F)F)nc2Nc2c(C)cccc2Cl)c1

>  <test_result>
33.3 µM

$$$$
>  <compound>
COc1ccc(OC)c(NC(=O)c2cccc(NC3=C(Cl)C(=O)N(Cc4ccccc4)C3=O)c2)c1

>  <test_result>
26.6 µM

$$$$
>  <compound>
O=P(O)(O)OCC1OC(n2cnc3c(NCc4ccco4)ncnc32)C(O)C1O (centres undefined)

>  <test_result>
3.89 µM

$$$$
>  <compound>
CC(C)=O.O=C([O-])C(F)(F)F.O=C([O-])C(F)(F)F.O=C([O-])C(F)(F)F.O=C([O-])C(F)(F)F.[Rh+2].[Rh+2]

>  <test_result>
> 100 µM

$$$$

The values you see were collected from PubChem BioAssay (NCI).
